System: 284 cell lines
Assay: cells
Conditions: Homo sapiens, SK-MEL-28, read-out: Cell Count IC50, SK-MEL-28; Skin; Melanoma
Protocol: A screen of 284 cell lines to assess the antiproliferative effect of EHMT2 inhibition was conducted by treating cell lines in 384-well format with a half-log step dilutions of Compound 205 over 10 concentrations with a maximum concentration of 0.1% v/v DMSO. Cells were plated on Day 0 and treated with compound on Day 1. […] Automated fluorescence microscopy was carried out using a Molecular Devices ImageXpress Micro XL high-content imager, and images were collected with a 4× objective. […]

compound	IC50
CNc1cc(C)nc(Nc2ccc(OC)c(OCCCN3CCCC3)c2)n1 [Compound 205]	1 to 10 µM

====

System: 284 cell lines
Assay: cells
Conditions: Homo sapiens, BE(2)-C, read-out: Cell Count IC50, BE(2)C; Central Nervous System; Neuroblastoma
pIC50: −log10 of the molar value.
readout.name: pIC50

smiles.input	readout.name	val
CNc1cc(C)nc(Nc2ccc(OC)c(OCCCN3CCCC3)c2)n1	pIC50	< 5.00

====

Tested on: 284 cell lines
Assay: cells
Conditions: read-out: Cell Count IC50, TE 125.T; Soft & Connective Tissue; Sarcoma
pIC50: −log10 of the molar value.

compound	pIC50
CNc1cc(C)nc(Nc2ccc(OC)c(OCCCN3CCCC3)c2)n1 [Compound 205]	6.00 to 7.00

These entries and their values trace back to patent US20240180880A1.
